tested on: Escherichia coli TOP10; assay: shrunken log2 fold change of peptide-encoding DNA abundance (4.5 h post-induction vs induction); higher = less antimicrobial activity (less host growth inhibition); conditions: time post-induction: 4.5 h; library: site-saturation at positions 5, 18, 19, 20;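 note: peptides expressed intracellularly from a pBAD plasmid library in pooled LB shake-flask culture, induced with 0.3% L-arabinose, DNA abundance read by NGS, three biological replicates, DESeq2 with apeglm shrinkage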
Decide by shrunken log2 fold change: equal to or exceeding 0.05 means 1, less means 0.

INSERT INTO results (primarysequence, assignedlabel) VALUES
  ('RRIRARPPRLPRPRPRPDESPRP', 1),
  ('RRIRMRPPRLPRPRPRPIYSPRP', 0),
  ('RRIRARPPRLPRPRPRPNVDPRP', 1),
  ('RRIRPRPPRLPRPRPRPYEIPRP', 0),
  ('RRIRMRPPRLPRPRPRPIEVPRP', 0),
  ('RRIRLRPPRLPRPRPRPLHKPRP', 1),
  ('RRIRIRPPRLPRPRPRPKENPRP', 0),
  ('RRIRDRPPRLPRPRPRPGPEPRP', 1),
  ('RRIRRRPPRLPRPRPRPNAIPRP', 0),
  ('RRIRKRPPRLPRPRPRPAMNPRP', 0),
  ('RRIRIRPPRLPRPRPRPFVYPRP', 0),
  ('RRIRYRPPRLPRPRPRPRNTPRP', 0),
  ('RRIRCRPPRLPRPRPRPRRMPRP', 0),
  ('RRIRDRPPRLPRPRPRPTVHPRP', 1),
  ('RRIRERPPRLPRPRPRPIAGPRP', 0),
  ('RRIRTRPPRLPRPRPRPGKRPRP', 1),
  ('RRIRVRPPRLPRPRPRPGHDPRP', 0),
  ('RRIRRRPPRLPRPRPRPKWFPRP', 0),
  ('RRIRHRPPRLPRPRPRPYMTPRP', 0),
  ('RRIRSRPPRLPRPRPRPEEFPRP', 0),
  ('RRIRIRPPRLPRPRPRPYHFPRP', 0),
  ('RRIRKRPPRLPRPRPRPGNHPRP', 1),
  ('RRIRFRPPRLPRPRPRPIQKPRP', 0),
  ('RRIRARPPRLPRPRPRPHYIPRP', 0),
  ('RRIRERPPRLPRPRPRPGWNPRP', 1),
  ('RRIRWRPPRLPRPRPRPQVGPRP', 1),
  ('RRIRQRPPRLPRPRPRPEYLPRP', 0),
  ('RRIRQRPPRLPRPRPRPQMGPRP', 0),
  ('RRIRIRPPRLPRPRPRPIINPRP', 0),
  ('RRIRLRPPRLPRPRPRPKHDPRP', 0),
  ('RRIRIRPPRLPRPRPRPGCDPRP', 0),
  ('RRIRSRPPRLPRPRPRPMIIPRP', 0);
